Known IC50 of a selection of molecules
# tested_on: KDR (Homo sapiens (Human), UniProt P35968)
# Sequence (P35968 20-1356): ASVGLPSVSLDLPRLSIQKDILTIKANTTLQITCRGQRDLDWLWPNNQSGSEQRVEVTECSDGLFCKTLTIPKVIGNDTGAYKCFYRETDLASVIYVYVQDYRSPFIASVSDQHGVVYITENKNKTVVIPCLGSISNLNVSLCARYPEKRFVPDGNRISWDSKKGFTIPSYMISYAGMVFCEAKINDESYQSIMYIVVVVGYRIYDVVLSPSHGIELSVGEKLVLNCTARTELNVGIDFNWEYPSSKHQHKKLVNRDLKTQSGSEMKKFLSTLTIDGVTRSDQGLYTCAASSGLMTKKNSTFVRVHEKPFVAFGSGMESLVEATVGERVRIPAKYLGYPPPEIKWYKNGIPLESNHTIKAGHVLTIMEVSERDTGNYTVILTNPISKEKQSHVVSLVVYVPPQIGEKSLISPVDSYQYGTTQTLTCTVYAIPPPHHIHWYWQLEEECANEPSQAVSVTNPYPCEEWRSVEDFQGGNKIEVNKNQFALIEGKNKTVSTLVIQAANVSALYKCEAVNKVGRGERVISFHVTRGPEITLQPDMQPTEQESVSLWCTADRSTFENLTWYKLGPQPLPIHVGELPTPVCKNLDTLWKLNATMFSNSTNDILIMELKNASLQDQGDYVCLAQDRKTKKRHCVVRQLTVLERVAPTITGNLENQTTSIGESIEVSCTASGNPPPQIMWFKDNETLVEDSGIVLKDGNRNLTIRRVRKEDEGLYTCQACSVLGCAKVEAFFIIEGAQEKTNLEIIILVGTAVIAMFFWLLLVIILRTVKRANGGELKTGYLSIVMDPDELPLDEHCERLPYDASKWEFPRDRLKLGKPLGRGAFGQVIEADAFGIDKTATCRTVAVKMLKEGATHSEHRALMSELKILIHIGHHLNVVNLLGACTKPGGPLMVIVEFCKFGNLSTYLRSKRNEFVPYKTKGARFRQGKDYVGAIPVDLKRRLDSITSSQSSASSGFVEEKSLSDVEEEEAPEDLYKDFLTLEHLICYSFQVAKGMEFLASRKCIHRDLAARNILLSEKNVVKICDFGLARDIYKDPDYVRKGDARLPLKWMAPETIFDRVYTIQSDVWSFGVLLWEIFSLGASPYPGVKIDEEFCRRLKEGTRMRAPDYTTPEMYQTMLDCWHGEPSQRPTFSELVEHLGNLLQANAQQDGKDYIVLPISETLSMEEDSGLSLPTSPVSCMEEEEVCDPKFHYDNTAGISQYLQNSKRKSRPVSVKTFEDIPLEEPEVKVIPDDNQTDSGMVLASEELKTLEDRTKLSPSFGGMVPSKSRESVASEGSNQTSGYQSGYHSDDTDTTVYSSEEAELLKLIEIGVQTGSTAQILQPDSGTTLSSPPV
# assay_protocol: LanthaScreen Eu TR-FRET KDR competitive binding assay
# assay_conditions: read-out: IC50 (nM) KDR; mean±S.D. (n=3); competitive binding
parameter: IC50 (nM)

| molecule | parameter | measurement |
| --- | --- | --- |
| CCN(CC)CCNC(=O)c1c(C)[nH]c(/C=C2\C(=O)Nc3ccc(C#N)cc32)c1C [Compound No. 17] | IC50 | 391 |
| CCN(CC)CCNC(=O)c1c(C)[nH]c(/C=C2\C(=O)Nc3ccc(CCC#N)cc32)c1C [Compound No. 15] | IC50 | 1330 |
| CCN(CC)CCNC(=O)c1c(C)[nH]c(/C=C2\C(=O)Nc3ccc(CCNC(C)=O)cc32)c1C [Compound No. 14] | IC50 | 2160 |
| CCN(CC)CCNC(=O)c1c(C)[nH]c(/C=C2\C(=O)Nc3cc(F)ccc32)c1C [Compound No. 20] | IC50 | 189 |

###

# System: K562 cells
# assay_protocol: MTS cell viability assay in K562 cells
# Type: cell-based
# assay_conditions: Homo sapiens; K562, RPMI-1640; Table 2 head prints 24 h, method and FIG. 3A legend 72 hours
# EC50 per record follows
parameter: EC50 (µM)

| smiles_string | tested_on | measurement |
| --- | --- | --- |
| CCN(CC)CCNC(=O)c1c(C)[nH]c(/C=C2\C(=O)Nc3ccc(CCN=[N+]=[N-])cc32)c1C | K562 cells | 3.83 |
| CCNCCNC(=O)c1c(C)[nH]c(/C=C2\C(=O)Nc3ccc(F)cc32)c1C | K562 cells | 13.6 |
| CCN(CC)CCCNC(=O)c1c(C)[nH]c(/C=C2\C(=O)Nc3ccc(F)cc32)c1C | K562 cells | 13.5 |

###

# tested_on: AMPK(α2) (Homo sapiens (Human))
# assay_protocol: LANCE Eu TR-FRET recombinant kinase assay, AMPK(α2)
# Type: biochemical
# assay_conditions: mean±S.D. (n=3); ATP 20 μM
# Description: Assays were performed at 25° C. in a reaction mixture consisting of 2.5 μL serially diluted inhibitor solution, 2.5 μL kinase, 2.5 μL ATP and 2.5 μL substrate. Reagents were incubated for 1 hr before the reaction was halted through the addition of EDTA (10 mM) after which Eu anti-phospho-CREB (Ser133) antibody (PerkinElmer) was added at a final concentration of 2 nM for 1 hr. […] (n=3)).
Please respond with 1 when measured IC50 is strictly beneath 60 nM, and with 0 in all other cases.

| compound | class_name |
| --- | --- |
| CCN(CC)CCNC(=O)c1c(C)[nH]c(/C=C2\C(=O)Nc3ccc(CCNC(C)=O)cc32)c1C [Compound No. 14] | 0 |
| CCN(CC)CCNC(=O)c1c(C)[nH]c(/C=C2\C(=O)Nc3cc(Br)ccc32)c1C [Compound No. 22] | 0 |
| Cc1[nH]c(/C=C2\C(=O)Nc3ccc(F)cc32)c(C)c1C(=O)NCCN [Compound No. 4] | 0 |
| CCN(CC)CCNC(=O)c1c(C)[nH]c(/C=C2\C(=O)Nc3ccc(CCOC)cc32)c1C [Compound No. 9] | 0 |
| CCN(CC)CCNC(=O)c1c(C)[nH]c(/C=C2\C(=O)Nc3ccc(CCN(C)C)cc32)c1C [Compound No. 12] | 0 |
| CCN(CC)CCNC(=O)c1c(C)[nH]c(/C=C2\C(=O)Nc3ccccc32)c1C [Compound No. 19] | 0 |
| CCN(CC)CCNC(=O)c1c(C)[nH]c(/C=C2\C(=O)Nc3ccc(CCO)cc32)c1C [Compound No. 10] | 1 |
| CCN(CC)CCNC(=O)c1c(C)[nH]c(/C=C2\C(=O)Nc3cc(Cl)ccc32)c1C [Compound No. 21] | 0 |
| CCN(CC)CCNC(=O)c1c(C)[nH]c(/C=C2\C(=O)Nc3ccc(CCC#N)cc32)c1C [Compound No. 15] | 1 |
| Cc1[nH]c(/C=C2\C(=O)Nc3ccc(F)cc32)c(C)c1C(=O)NCCN(C)C [Compound No. 5] | 1 |
| CCN(CC)CCNC(=O)c1c(C)[nH]c(/C=C2\C(=O)Nc3cc(F)ccc32)c1C [Compound No. 20] | 1 |

###

# Tested on: K562 cells
# assay_protocol: MTS cell viability assay in K562 cells
# Assay type: cell-based
# assay_conditions: Homo sapiens; K562, RPMI-1640; Table 2 head prints 24 h, method and FIG. 3A legend 72 hours
pEC50: −log10 of the molar value.

| molecule | tested_on | pEC50 |
| --- | --- | --- |
| Cc1[nH]c(/C=C2\C(=O)Nc3ccc(F)cc32)c(C)c1C(=O)NCCN(C)C [Compound No. 5] | K562 cells | 4.90 |
| CCN(CC)CCNC(=O)c1c(C)[nH]c(/C=C2\C(=O)Nc3cc(F)ccc32)c1C [Compound No. 20] | K562 cells | 5.55 |
| CCN(CC)CCNC(=O)c1c(C)[nH]c(/C=C2\C(=O)N(C)c3ccc(F)cc32)c1C [Compound No. 1] | K562 cells | 5.17 |
| CCN(CC)CCNC(=O)c1c(C)[nH]c(/C=C2\C(=O)Nc3ccc(CCC#N)cc32)c1C [Compound No. 15] | K562 cells | 4.83 |

###

The reader will find reported IC50 values listed item by item below.
# tested_on: AMPK(α2) (Homo sapiens (Human), UniProt P54646)
# Sequence (P54646 whole entry, looked up): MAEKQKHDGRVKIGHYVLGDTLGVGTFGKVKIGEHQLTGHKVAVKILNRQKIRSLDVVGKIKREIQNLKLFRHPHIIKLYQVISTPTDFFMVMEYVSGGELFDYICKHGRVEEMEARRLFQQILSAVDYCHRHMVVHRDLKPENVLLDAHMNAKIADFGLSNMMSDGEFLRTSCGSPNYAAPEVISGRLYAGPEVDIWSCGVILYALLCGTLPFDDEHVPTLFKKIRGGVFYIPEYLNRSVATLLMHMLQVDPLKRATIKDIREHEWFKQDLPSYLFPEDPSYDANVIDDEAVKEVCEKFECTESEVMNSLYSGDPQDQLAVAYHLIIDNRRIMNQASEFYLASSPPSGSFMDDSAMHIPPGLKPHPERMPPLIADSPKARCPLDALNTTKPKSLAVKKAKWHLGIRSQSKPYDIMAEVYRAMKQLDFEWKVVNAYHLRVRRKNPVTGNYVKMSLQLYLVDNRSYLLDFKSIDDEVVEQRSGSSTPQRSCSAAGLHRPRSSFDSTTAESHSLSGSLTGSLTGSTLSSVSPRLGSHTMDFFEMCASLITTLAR
# Sequence (Q9Y478 whole entry partner, looked up): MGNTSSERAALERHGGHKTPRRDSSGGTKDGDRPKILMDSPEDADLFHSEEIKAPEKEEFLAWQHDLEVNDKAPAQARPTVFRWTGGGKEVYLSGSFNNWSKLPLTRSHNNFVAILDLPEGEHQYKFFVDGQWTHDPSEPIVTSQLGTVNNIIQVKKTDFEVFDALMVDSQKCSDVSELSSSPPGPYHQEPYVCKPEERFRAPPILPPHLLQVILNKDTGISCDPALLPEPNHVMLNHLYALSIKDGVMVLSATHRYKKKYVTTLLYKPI
# Sequence (P54619 whole entry partner, looked up): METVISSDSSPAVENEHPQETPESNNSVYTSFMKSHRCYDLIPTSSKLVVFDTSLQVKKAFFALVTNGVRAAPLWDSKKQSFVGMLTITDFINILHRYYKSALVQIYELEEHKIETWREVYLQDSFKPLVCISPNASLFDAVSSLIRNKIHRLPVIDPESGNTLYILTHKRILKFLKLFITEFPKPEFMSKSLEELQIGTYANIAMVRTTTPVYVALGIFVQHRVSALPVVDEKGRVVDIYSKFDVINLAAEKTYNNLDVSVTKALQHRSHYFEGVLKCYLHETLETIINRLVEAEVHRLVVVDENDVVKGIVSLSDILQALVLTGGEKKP
# assay_protocol: LANCE Eu TR-FRET recombinant kinase assay, AMPK(α2)
# Format: biochemical
# assay_conditions: mean±S.D. (n=3); ATP 20 μM
parameter: IC50 (nM)

| smiles_string | measurement |
| --- | --- |
| Cc1[nH]c(/C=C2\C(=O)Nc3ccc(F)cc32)c(C)c1C(=O)NCCCN(C)C | 74.8 |
| CCN(CC)CCNC(=O)c1c(C)[nH]c(/C=C2\C(=O)Nc3ccc(CNC(N)=O)cc32)c1C | 83.6 |
| CCN(CC)CCNC(=O)c1c(C)[nH]c(/C=C2\C(=O)Nc3ccc(C#N)cc32)c1C | 16.2 |
| CCN(CC)CCNC(=O)c1c(C)[nH]c(/C=C2\C(=O)Nc3ccc(CCC(N)=O)cc32)c1C | 60.7 |
| CCN(CC)CCNC(=O)c1c(C)[nH]c(/C=C2\C(=O)Nc3ccc(CCN=[N+]=[N-])cc32)c1C | 101 |
| CCN(CC)CCNC(=O)c1c(C)[nH]c(/C=C2\C(=O)Nc3ccc(CCOC(C)=O)cc32)c1C | 111 |
| CCN(CC)CCCNC(=O)c1c(C)[nH]c(/C=C2\C(=O)Nc3ccc(F)cc32)c1C | 38.6 |

###

# Tested on: K562 cells
# assay_protocol: CellTox green cellular toxicity assay in K562 cells (glucose-free media)
# Assay type: cell-based
# assay_conditions: Homo sapiens, read-out: EC50 CellTox Green 48 h, 48 h
pEC50: −log10 of the molar value.

| smiles_string | pEC50 |
| --- | --- |
| CCN(CC)CCNC(=O)c1c(C)[nH]c(/C=C2\C(=O)Nc3ccc(C#N)cc32)c1C | 4.87 |
| CCN(CC)CCNC(=O)c1c(C)[nH]c(/C=C2\C(=O)Nc3ccc(CCC#N)cc32)c1C | 4.87 |
| CCN(CC)CCCNC(=O)c1c(C)[nH]c(/C=C2\C(=O)Nc3ccc(F)cc32)c1C | 4.88 |
| CCN(CC)CCNC(=O)c1c(C)[nH]c(/C=C2\C(=O)Nc3cc(Cl)ccc32)c1C | 5.38 |
| Cc1[nH]c(/C=C2\C(=O)Nc3ccc(F)cc32)c(C)c1C(=O)NCCN(C)C | 4.89 |

###

# tested_on: KDR (Homo sapiens (Human), UniProt P35968)
# assay_protocol: LanthaScreen Eu TR-FRET KDR competitive binding assay
# assay_conditions: read-out: KDR IC50; values in μM

| smiles_string | units_symbol | IC50 |
| --- | --- | --- |
| CCN(CC)CCNC(=O)c1c(C)[nH]c(/C=C2\C(=O)Nc3ccc(CCN=[N+]=[N-])cc32)c1C | µM | 2.26 |

###

Measured pEC50 of individual entries
# Tested on: K562 cells
# assay_protocol: CellTox green cellular toxicity assay in K562 cells (glucose-free media)
# Format: cell-based
# assay_conditions: Homo sapiens, read-out: EC50 CellTox Green 48 h, 48 h
pEC50: −log10 of the molar value.

| smiles_string | tested_on | pEC50 |
| --- | --- | --- |
| CCN(CC)CCNC(=O)c1c(C)[nH]c(/C=C2\C(=O)Nc3ccc(CCN=[N+]=[N-])cc32)c1C | K562 cells | 5.32 |
| CCN(CC)CCNC(=O)c1c(C)[nH]c(/C=C2\C(=O)Nc3cc(F)ccc32)c1C | K562 cells | 5.15 |
| CCN(CC)CCNC(=O)c1c(C)[nH]c(/C=C2\C(=O)N(C)c3ccc(F)cc32)c1C | K562 cells | 5.16 |
| CCNCCNC(=O)c1c(C)[nH]c(/C=C2\C(=O)Nc3ccc(F)cc32)c1C | K562 cells | 4.93 |

src = patent US12435059B2
